tested-target: UniProt:P07333
Sequence (P07333 20-972): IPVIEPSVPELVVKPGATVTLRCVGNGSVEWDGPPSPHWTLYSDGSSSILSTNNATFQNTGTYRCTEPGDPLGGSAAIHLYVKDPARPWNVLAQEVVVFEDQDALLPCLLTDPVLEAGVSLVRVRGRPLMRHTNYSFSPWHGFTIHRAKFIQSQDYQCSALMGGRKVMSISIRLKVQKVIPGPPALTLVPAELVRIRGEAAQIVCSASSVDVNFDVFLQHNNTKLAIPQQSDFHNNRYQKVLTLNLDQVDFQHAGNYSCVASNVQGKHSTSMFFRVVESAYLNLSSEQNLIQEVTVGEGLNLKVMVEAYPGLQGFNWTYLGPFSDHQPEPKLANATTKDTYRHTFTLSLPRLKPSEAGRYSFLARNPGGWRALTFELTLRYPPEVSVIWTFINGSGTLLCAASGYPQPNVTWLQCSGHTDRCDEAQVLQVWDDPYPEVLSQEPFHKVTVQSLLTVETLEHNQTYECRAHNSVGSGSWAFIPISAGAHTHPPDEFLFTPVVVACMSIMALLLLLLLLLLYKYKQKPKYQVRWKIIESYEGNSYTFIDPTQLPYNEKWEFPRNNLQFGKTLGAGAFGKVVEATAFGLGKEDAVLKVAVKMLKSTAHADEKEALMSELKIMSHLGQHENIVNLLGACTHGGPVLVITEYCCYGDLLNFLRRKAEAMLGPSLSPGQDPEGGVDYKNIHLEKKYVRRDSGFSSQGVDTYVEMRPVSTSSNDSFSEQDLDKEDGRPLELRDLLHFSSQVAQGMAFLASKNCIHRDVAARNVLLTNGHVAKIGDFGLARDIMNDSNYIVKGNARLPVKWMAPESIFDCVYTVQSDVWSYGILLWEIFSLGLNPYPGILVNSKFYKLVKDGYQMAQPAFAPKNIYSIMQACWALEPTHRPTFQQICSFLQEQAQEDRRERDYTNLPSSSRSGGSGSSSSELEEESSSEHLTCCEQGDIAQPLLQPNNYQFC
protocol-notes: Cellular CSF1R inhibition ELISA (p-CSF1R, M-CSF-induced) using THP-1 cells
pIC50: −log10 of the molar value.
quantity-name: pIC50

> print(dat)
                                   compound  result.value
1  COc1cc2nccc(Oc3ccc(NC(=O)c4nn(C5CC5)cc4NCCC(F)(F)F)nc3)c2cc1OC        > 6.30
2  COc1cc2nccc(Oc3ccc(NC(=O)c4nn(C5CC5)c(C(C)=O)c4OCC(F)(F)F)nc3)c2cc1OC        > 6.30
3  COc1cc2nccc(Oc3ccc(NC(=O)c4nn(C5CCOC5)cc4OCC(F)(F)F)cn3)c2cc1OC (stereo not shown)        ≤ 6.00

// below: pIC50 requested for another compound
**Q:** Given the entry CCCn1cc(OCC2CCC2)c(C(=O)Nc2ccc(Oc3ccnc4cc(OC)c(OC(F)(F)F)cc34)cn2)n1 , what pIC50 was observed with UniProt:P07333?
**A:** ≤ 6.00
